Cited source for all entries: the nanobody polyreactivity screen of Harvey et al. (2022)

# assay_remarks: yeast display, Sf9 membrane polyspecificity reagent, FACS + sequencing; frameworks hold sequencing errors
quantity_measured: polyreactivity (PSR sort gate)

QVQLVESGGGLVQAGGSLRLSCAASGLTLYINAMGWYRQAPGKERELVAAIRTVGRTRYADSVKGRFTISRDNAKNTVYLQMNSLKPEDTAVYYCNARRYLRGYGYGYWGQGTQVTVSS = high polyreactivity
QVHLVESGVGLVQAGGSLRLSCAASGQIFPYYAMGWYRPAPGKETELVAAITSGGGTYYADSVKGRFTISRDNAKNTVYLQMNSLKPEDTAVYYCAVGSYGHPKHRRNLDYWGQGTQVTVSS = low polyreactivity
QVQLVESGGGLVQAGGSLRLSCAASGSTFSTNVMGWSRQAPGKERELVAAISTIGGSTYADSVKGRFTISRDNAKNSVYLQMNSLKPEDTAVYDCAATRRWYPTKLYGYWGQGTQVTVSS = high polyreactivity
QVQLVESAGGLVQAGASLRLSCAASGFIFRYNTKGWYRQAPGKEMELVATINRSGGSTYYADSVKGRFTISRDNAKNTVYLQMNSLKPVDTAVYYCAAVSLQPYYNAGATWDGDYWGQGTQVTVSS = high polyreactivity
QVQLVESGGGLVQAGGSLRLSCAASGLTFVPNAMGWYRQAPGKERELVAAISNNGGRTYYADSVKGRFTISRDNAKNTVYLQMNSLKPEDTAVYYCAKYLSPGERHSYDYWGQGTQVTVSS = high polyreactivity
QVQLVESGGGLVQAGGSLRLSCAASGSIFKWYAMGWYRQAPGKERELVASITWSGGSTYYADSVKGRFTISRDNAKNTVYLQMNSLKPEDTAVYYCNALSWVRGDYWGQGTQVTVSS = low polyreactivity
QVQLVESGGGLVQAGGSLRLSCAASGLIFYDNMGWSRQAPGKERELVAAISSSGGSTSYADSVKGRFTISRDNAKNTVYLQMNSLKPADTAVYYCAADSYPAYLGFVGFDYWGQGTQVTVSS = low polyreactivity
QVQLVESGGGLVQAGGSLRLSCAASGITYGYVMGLYRQAPGKERELVAAISYRGGSTYYADSVKGRFTISRDNAKNTVYLQMNSLKPEDTAVYYCATEASGKTYGYVAYDYWGQGTQVTVSS = high polyreactivity

// polyreactivity (PSR sort gate) lookup, key: `QVQLVESGGGLVQAGGSLRLSCAASGRIFVVNAMGWYRQAPGNERELVAAISSSSDSTYYADSVKGRCTISRDNAKNTVYLQMNSLKPEDTAVYYCAADYHYDGYWIYDYWGQGTQVTVSS`
high polyreactivity

Any idea what its polyreactivity (PSR sort gate) is? The sequence is `QVHLVESGGGLVQAGGSLRLSCAASARTFTQNAMVWYRQAPGKERELVAAITRSGGSTYYADSVKGRFTISRDYAKNTVYLQMNSLKPEDTAVYYFIKYTHYYDYDYWGQGTQVTVSS`
high polyreactivity

Name the recorded polyreactivity (PSR sort gate) for `QVQLVESGGGLVQAGGSLRLSCAASGRIFFANTMGWYRQATGKERELVAAISLSSGSRYYADSVKGRFTISRDNAKNTVYLQMNSLKPEDTAVYYCAARGYSHVASRLYYYWGQGTQVTVSS` .
high polyreactivity

---

# assay_remarks: yeast display, Sf9 membrane polyspecificity reagent, FACS + sequencing; frameworks hold sequencing errors
quantity_measured: polyreactivity (PSR sort gate)

Would you please look over these solved cases?
QVQLVESGGGLVQAGGSHRLSCAASRSIFPYNAKGWYRQAPGKATELVATISNSGGSTYYADSVKGRFTISRDTAMNTVYLQMNSLKPEDTAVYYCADDRSVYLPAPDPALDYWGQGTQLTVSS = low polyreactivity
QVRLVETGGGLVQAGGSLRLSCAASGSIFLIYDMGWYRQAPGKEMELVAAISNSVGSTYADSVKGRFTMSRDNAKNTVYLQMNSLKPEDTAVYYCNADYGPIDGRGGYWGQGTQVTVSS = low polyreactivity
QVQLVESGGGLVQAGGSHRLSCAASGFILAYYAMGWYRQAPGKERELVASINRSGGSTYYADSVKGRFTISRDNAKNTVYFQMNSLKPEDTAVHYCAHTNRGDGQWWYRYYYWGQGTQVTVSS = high polyreactivity
QVQLVESGGGLVQAGGSLRLSCAASGFTFLGYAMGWYRQAPGKERELVAAITRGGSTYYADSVKGRFTISRDNAKNTVYLQMNSLKPEDTAVYYCAARARAGGYGYWGQGTQVTVSS = high polyreactivity
QVQLVESGGGLVQAGGSLRLSCAASGSIFRKYAMGWYRQAPGKEREFVAAISRSGGGTYYADSVKGRFTISRDNAKNTVYLQMNSLKPEDTAVYYCAAEFRTGLQGEHYYWGQGTQVTVSS = low polyreactivity

polyreactivity (PSR sort gate) for `QVQLVESGGGLVQAGGSLRLSCAASGRTLVDYGMGWYRQPPGKERELVAVITSGGSTYYADSVKGRFTISRDNAKNTVYLVMNSLKPEDTAVYYCNARHPYYTVQTGGYDYWGQGTQVTVSS` ?
low polyreactivity

Using the record for `QVQLVESGGGLVQAGGSLRLSCAASGNTIYQYAMGWYRQAPGKERELVAAISSSVDRTYYADSVKGRFTISRDNAKNTVYLQMNSLKPEDTAVYYCAAASGGRWRVGYWGQGTQVTVSS` , report its polyreactivity (PSR sort gate).
high polyreactivity

Give its polyreactivity (PSR sort gate) value. Item: `QVQLVESGGGLVQAGGSLRLSCAASGSTFTFNAMGWYRQATGKERELVAAITRSGTSTYYADSVKGRFTISRDNAKNTVYLQMNSLKPEDNAVYYCAAGRLWKTYEYYYWGQGTQVTVSS`
high polyreactivity

Param item = `QVQLVESGGGLVQAGGSLRLSCAASGRIFLHYAMGWYRQAPGKERELVAAISRSGGSTYYADSVKGRFTISRDNAKNTVYLQMNSLKPEDTAVYYCAAAYPFKTTEGYYYWGQGTQVTVSS` ; retrieve measured polyreactivity (PSR sort gate).
high polyreactivity

Which polyreactivity (PSR sort gate) reading was recorded for the sequence `QVQLVESGGGLVQAGGSLRLSCAASGFTFRSYTMGWYRQAPGKERELVASIRYGGGSTYYADSVKGRFTISRDNAKNTVYLQMNSLKPEDTAVYYCSAESAWTSPYDYWGQGTQVTVSS` ?
high polyreactivity

// lookup polyreactivity (PSR sort gate) for `QVQLVESGGGLVQAGGSLRLSCAASGRIFPPNAMGWYRQAPGKERELVAGITSSGDTTYYADSVKGRFTISRDNAKNTDYLQMNSLKPEDTAVYYCAKDEVYADDRSALFDYWGQGTQVTVSS`
low polyreactivity
